# TEST SYSTEM: recombinant homotrimeric HA A/northern shoveler/California/HKWF115/07 H6N4 (Influenza A virus A/northern shoveler/California/HKWF115/2007(H6N1))
# TEST: protein microarray, purified IgG, trimeric HA
# MEASUREMENT CONTEXT: remark: other sources report otherwise
REPORTED METRIC: Trimeric HA Binding: RLU (RLU)
# value in RLU; strip the unit string

INSERT INTO results (binder, reported_metric, endpoint_unit, readout_number) VALUES
  ('TCN-557 (5081_A04) (antibody, V domains shown) VH: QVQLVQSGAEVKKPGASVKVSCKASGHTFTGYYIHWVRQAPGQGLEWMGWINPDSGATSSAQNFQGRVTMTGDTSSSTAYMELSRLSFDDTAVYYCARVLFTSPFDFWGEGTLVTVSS VL: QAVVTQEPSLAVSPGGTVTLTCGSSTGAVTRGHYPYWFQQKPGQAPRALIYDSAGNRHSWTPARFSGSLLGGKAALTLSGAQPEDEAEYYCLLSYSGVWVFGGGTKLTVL', 'Trimeric HA Binding: RLU', 'RLU', 12600);

Task: Indicate the recorded Trimeric HA Binding: RLU value for this binder: TCN-522 (3212_I12) (antibody, V domains shown) VH: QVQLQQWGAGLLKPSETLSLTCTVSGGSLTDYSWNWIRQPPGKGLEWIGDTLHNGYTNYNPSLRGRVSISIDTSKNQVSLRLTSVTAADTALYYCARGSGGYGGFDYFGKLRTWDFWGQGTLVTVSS VL: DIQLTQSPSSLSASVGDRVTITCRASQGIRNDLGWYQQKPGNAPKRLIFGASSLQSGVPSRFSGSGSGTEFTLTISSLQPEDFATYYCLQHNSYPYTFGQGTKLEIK
Output: 3180
